Cited source for all entries: paper PMC10139733

# experimental-protocol: Screening solubility of sorafenib in oils, surfactants and cosolvents
# Format: physicochemical
# settings: ethanol (cosolvent), 37 °C, organic solvent or mixture, thermodynamic from solid
Counter-ions that a name gives are not always drawn.
quantity-kind: solubility at 24 h (µg/mL)
Please state the figure in µg/mL; there is no need to write the unit.

Challenge: Give its solubility at 24 h value. Item: CNC(=O)c1cc(Oc2ccc(NC(=O)Nc3ccc(Cl)c(C(F)(F)F)c3)cc2)ccn1 [sorafenib, Sorafenib tosylate]
Response given: 5800

---

# experimental-protocol: Screening solubility of sorafenib in oils, surfactants and cosolvents
# Type: physicochemical
# settings: corn oil, 37 °C, oil or lipid, thermodynamic from solid
Where a name gives a salt, the structure may show the parent alone.
quantity-kind: solubility at 24 h (µg/mL)
Please state the figure in µg/mL; there is no need to write the unit.

Challenge: Give its solubility at 24 h value. Item: CNC(=O)c1cc(Oc2ccc(NC(=O)Nc3ccc(Cl)c(C(F)(F)F)c3)cc2)ccn1 [sorafenib, Sorafenib tosylate]
Response given: 53

---

# experimental-protocol: Screening solubility of sorafenib in oils, surfactants and cosolvents
# Type: physicochemical
# settings: lauroglycol (oil), 37 °C, oil or lipid, thermodynamic from solid
Structures can show the parent of a compound that is named as a salt.
quantity-kind: solubility at 24 h
Write your answer as a measured quantity: the number, then the unit.

Challenge: Give its solubility at 24 h value. Item: CNC(=O)c1cc(Oc2ccc(NC(=O)Nc3ccc(Cl)c(C(F)(F)F)c3)cc2)ccn1 [sorafenib, Sorafenib tosylate]
Response given: 298 µg/mL

---

# experimental-protocol: Screening solubility of sorafenib in oils, surfactants and cosolvents
# Format: physicochemical
# settings: isopropyl myristate (oil), 37 °C, oil or lipid, thermodynamic from solid
Where a name gives a salt, the structure may show the parent alone.
quantity-kind: solubility at 24 h (µg/mL)
Please state the figure in µg/mL; there is no need to write the unit.

Challenge: Give its solubility at 24 h value. Item: CNC(=O)c1cc(Oc2ccc(NC(=O)Nc3ccc(Cl)c(C(F)(F)F)c3)cc2)ccn1 [sorafenib, Sorafenib tosylate]
Response given: 37.9

---

# experimental-protocol: Screening solubility of sorafenib in oils, surfactants and cosolvents
# Type: physicochemical
# settings: olive oil, 37 °C, oil or lipid, thermodynamic from solid
Structures can show the parent of a compound that is named as a salt.
quantity-kind: solubility at 24 h
Write your answer as a measured quantity: the number, then the unit.

Challenge: Give its solubility at 24 h value. Item: CNC(=O)c1cc(Oc2ccc(NC(=O)Nc3ccc(Cl)c(C(F)(F)F)c3)cc2)ccn1 [sorafenib, Sorafenib tosylate]
Response given: 35 µg/mL

---

# experimental-protocol: Screening solubility of sorafenib in oils, surfactants and cosolvents
# Assay type: physicochemical
# settings: mineral oil, 37 °C, oil or lipid, thermodynamic from solid
Counter-ions that a name gives are not always drawn.
quantity-kind: solubility at 24 h (µg/mL)
Please state the figure in µg/mL; there is no need to write the unit.

Challenge: Give its solubility at 24 h value. Item: CNC(=O)c1cc(Oc2ccc(NC(=O)Nc3ccc(Cl)c(C(F)(F)F)c3)cc2)ccn1 [sorafenib, Sorafenib tosylate]
Response given: 47.6

---

# experimental-protocol: Screening solubility of sorafenib in oils, surfactants and cosolvents
# Format: physicochemical
# settings: soybean oil, 37 °C, oil or lipid, thermodynamic from solid
Counter-ions that a name gives are not always drawn.
quantity-kind: solubility at 24 h (µg/mL)
Please state the figure in µg/mL; there is no need to write the unit.

Challenge: Give its solubility at 24 h value. Item: CNC(=O)c1cc(Oc2ccc(NC(=O)Nc3ccc(Cl)c(C(F)(F)F)c3)cc2)ccn1 [sorafenib, Sorafenib tosylate]
Response given: 64

---

# experimental-protocol: Screening solubility of sorafenib in oils, surfactants and cosolvents
# Assay type: physicochemical
# settings: triacetin (oil), 37 °C, oil or lipid, thermodynamic from solid
Counter-ions that a name gives are not always drawn.
quantity-kind: solubility at 24 h (µg/mL)
Please state the figure in µg/mL; there is no need to write the unit.

Challenge: Give its solubility at 24 h value. Item: CNC(=O)c1cc(Oc2ccc(NC(=O)Nc3ccc(Cl)c(C(F)(F)F)c3)cc2)ccn1 [sorafenib, Sorafenib tosylate]
Response given: 113

---

# experimental-protocol: Screening solubility of sorafenib in oils, surfactants and cosolvents
# Assay type: physicochemical
# settings: captex 355 (oil), 37 °C, oil or lipid, thermodynamic from solid
Structures can show the parent of a compound that is named as a salt.
quantity-kind: solubility at 24 h (µg/mL)
Please state the figure in µg/mL; there is no need to write the unit.

Challenge: Give its solubility at 24 h value. Item: CNC(=O)c1cc(Oc2ccc(NC(=O)Nc3ccc(Cl)c(C(F)(F)F)c3)cc2)ccn1 [sorafenib, Sorafenib tosylate]
Response given: 42.8
